Test system: humanized Pear1 mice
Experiment: Peritoneal adhesion model, BhatiaDS score
Assay type: in vivo
Parameters: key: grade 0: no adhesion; grade I: adhesive area of the area treated in the caecums of vermiform/total area of the treated area<50%, easy for blunt separation; grade II: above-mentioned area ratio≥50%, easy for blunt dissection; Grade III: Regardless of the size of the adhesive area, as long as the adhesion is difficult to separate, blunt separation can still be performed, but the intestinal wall is obviously damaged after separation; Grade IV: Regardless of the size of the adhesive area, as long as the adhesion is firm and can no longer be bluntly separated, required sharp separation
Settings: 1.0 mg/kg intraperitoneal once a week; 2 weeks (n = 8)
Method: The model was made in humanized mice within 3 cm from the caecums of vermiform in peritoneal cavity, following the methods in the literature (Zhiliang Zhang, et al., Characteristics of genesis and development of peritoneal adhesion by different causes: experiment with rats, Chinese Journal of Medicine, 2005). […] And the degree of adhesion in the peritoneal adhesion model was evaluated. […]

MOLECULE | BhatiaDS score
hLF107: humanized anti-human Pear1 antibody; VH SEQ ID NO: 8, VL SEQ ID NO: 24 (antibody, V domains shown) VH: QVQLVQSGAEVKKPGASVKVSCKASGYTFTGYPMNWVRQAPGKRLEWMGVINPYNGGTSYNQKFKGRATLTVDTSASTAYMELSSLRSEDTAVYYCARGGVRPFAYWGQGTLVTVSS VL: DIQMTQSPSSLSASVGDRVTITCKASEDIYNRLAWYQQKPGKAPKLLISGATSLETGVPSRFSGSGSGNDYTLTISSLQPEDFATYYCQQYWSTPTFGQGTKLEIK | IV
